I'd be grateful if you could share measured AC50 for these entries.

Report the value of AC50 obtained on D(3) dopamine receptor (Homo sapiens, UniProt P35462) for COc1ccc(Cc2nccc3cc(OC)c(OC)cc23)cc1OC .
Sequence (P35462 whole entry): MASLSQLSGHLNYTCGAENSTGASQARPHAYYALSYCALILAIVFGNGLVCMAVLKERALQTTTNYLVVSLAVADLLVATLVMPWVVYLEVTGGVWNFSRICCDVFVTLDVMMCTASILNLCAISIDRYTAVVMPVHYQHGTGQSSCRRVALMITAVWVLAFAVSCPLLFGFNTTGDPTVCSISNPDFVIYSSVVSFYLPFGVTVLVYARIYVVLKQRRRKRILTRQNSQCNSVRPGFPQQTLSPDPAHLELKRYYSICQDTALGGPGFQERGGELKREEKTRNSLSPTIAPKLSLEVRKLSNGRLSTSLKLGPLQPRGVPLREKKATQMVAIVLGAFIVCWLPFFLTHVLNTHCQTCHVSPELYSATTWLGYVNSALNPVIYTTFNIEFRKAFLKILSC
> 30 µM

Fill in AC50 for COc1ccc(/C=C/C(=O)Nc2ccccc2C(=O)O)cc1OC tested with D(3) dopamine receptor (Homo sapiens, UniProt P35462).
> 30 µM

Check D(3) dopamine receptor (Homo sapiens, UniProt P35462) data and give AC50 for CC1(C)C(/C=C/C=C/C=C/C=C2\N(CCCCS(=O)(=O)O)c3ccc4ccccc4c3C2(C)C)=[N+](CCCCS(=O)(=O)[O-])c2ccc3ccccc3c21 [INDOCYANINE GREEN ACID FORM] .
8.7 µM

State the measured AC50 (D(3) dopamine receptor (Homo sapiens, UniProt P35462)) of N=C(N)c1ccc2cc(OC(=O)c3ccc(N=C(N)N)cc3)ccc2c1
4.6 µM

State, for D(3) dopamine receptor (Homo sapiens, UniProt P35462), measured AC50 of the compound listed here: CCCC[C@H](C)C[C@H](O)/C=C/[C@H]1[C@H](O)CC(=O)[C@@H]1CCCC/C=C/C(=O)O
> 30 µM

Specify the recorded AC50 for Cc1cccc(N(C)C(=S)Oc2ccc3ccccc3c2)c1 [TOLNAFTATE] , system: D(3) dopamine receptor (Homo sapiens, UniProt P35462). Note: assay procedure not described here.
> 30 µM

For D(3) dopamine receptor (Homo sapiens, UniProt P35462), give the measured AC50 of the entry COc1ccnc(C[S+]([O-])c2nc3ccc(OC(F)F)cc3[nH]2)c1OC (stereo not given)
> 10 µM

For D(3) dopamine receptor (Homo sapiens, UniProt P35462), give AC50 of the listed compound: CCOc1cc(CC(=O)N[C@@H](CC(C)C)c2ccccc2N2CCCCC2)ccc1C(=O)O [REPAGLINIDE]
> 30 µM

Enter measured AC50, system D(3) dopamine receptor (Homo sapiens, UniProt P35462), for the compound shown: CNC[C@H](O)c1cccc(O)c1; note: assay procedure not described here
4.1 µM

Enter recorded AC50 with D(3) dopamine receptor (Homo sapiens, UniProt P35462) for CNCC[C@H](Oc1cccc2ccccc12)c1cccs1 here.
4.6 µM

Check D(3) dopamine receptor (Homo sapiens, UniProt P35462) data and give AC50 for C#C[C@]1(O)CC[C@H]2[C@@H]3CCc4cc(OC)ccc4[C@H]3CC[C@@]21C .
> 30 µM

Find AC50 for CCN(CC)C(=O)C1CN2CCc3cc(OC)c(OC)cc3C2CC1OC(C)=O (stereo not given) [BENZQUINAMIDE] on D(3) dopamine receptor (Homo sapiens, UniProt P35462) and write it down.
14.4 µM

Identify measured AC50 obtained with D(3) dopamine receptor (Homo sapiens, UniProt P35462) for COc1cc(OC)c(C(=O)CCCN2CCCC2)c(OC)c1 .
> 30 µM

State recorded AC50 with D(3) dopamine receptor (Homo sapiens, UniProt P35462), entry CC[C@H]1OC(=O)[C@H](C)[C@@H](O[C@H]2C[C@@](C)(OC)[C@@H](O)[C@H](C)O2)[C@H](C)[C@@H](O[C@@H]2O[C@H](C)C[C@H](N(C)C)[C@H]2O)[C@](C)(O)C[C@@H](C)/C(=N\OCOCCOC)[C@H](C)[C@@H](O)[C@]1(C)O , no comment.
> 30 µM

# lookup: D(3) dopamine receptor (Homo sapiens, UniProt P35462) AC50, key = NC(=O)c1ncn([C@@H]2O[C@H](CO)[C@@H](O)[C@H]2O)n1
> 30 µM
